- Test system: human lung squamous carcinoma cells (NCI-H226)
- TEST_SUMMARY: scratch assay, migration of NCI-H226 cells
- Format: cell-based
- CONDITION_INFO: NCI-H226, 10 μM, 48 hours; control group 65.31 ± 3.19
Ends that are not written are not given here. PEG = not defined here
MEASUREMENT_KIND: Migration rate (%) (mean ± SD, P)

[[record]]
substance = "N14: SEQ ID NO: 1 with deletion of positions 1-5 and addition of one amino acid at the carboxyl terminal (LAKENVTQDAEDNC)"
observed = "19.97 ± 2.94,*** %"


# batch: return Migration rate (%) (mean ± SD, P) for each of the 2 substances below
1. N8: SEQ ID NO: 1 with deletion of positions 15-18 and positions 3, 4 and 11 (YRFLAKENTQD)
2. N51: SEQ ID NO: 1 with A15R, one amino acid added at each terminal, PEG modification at the amino terminal ({PEG}-FYRVRFLAKENVTQDREDNC; reading uncertain)

20.29 ± 4.29,*** %
33.16 ± 4.43,** %
